Data provenance: patent US20180258140A1

target: FGFR3 Kinase (UniProt P22607 436-806); assay: cell-based or functional assay
Sequence (P22607 436-806 limits assumed): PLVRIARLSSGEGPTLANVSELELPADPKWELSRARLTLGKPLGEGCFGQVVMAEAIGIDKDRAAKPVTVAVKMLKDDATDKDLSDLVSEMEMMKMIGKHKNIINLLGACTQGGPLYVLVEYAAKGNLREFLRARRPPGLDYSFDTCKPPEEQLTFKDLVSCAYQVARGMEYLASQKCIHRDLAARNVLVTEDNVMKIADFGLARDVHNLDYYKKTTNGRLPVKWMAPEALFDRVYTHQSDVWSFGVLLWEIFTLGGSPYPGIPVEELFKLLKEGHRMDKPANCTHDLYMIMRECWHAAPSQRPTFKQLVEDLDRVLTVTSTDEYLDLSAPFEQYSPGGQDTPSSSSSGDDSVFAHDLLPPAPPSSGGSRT
*: point of attachment. Palmitoyl = CCCCCCCCCCCCCCCC(=O)*
Recorded FGFR3 Kinase % Inhibition by entry
Express the result in % but write the number alone.

Could you please provide reported FGFR3 Kinase % Inhibition for Palmitoyl-KANLPLGNYKKP-NH2 (SMILES CCCCCCCCCCCCCCCC(=O)N[C@@H](CCCCN)C(=O)N[C@@H](C)C(=O)N[C@@H](CC(N)=O)C(=O)N[C@@H](CC(C)C)C(=O)N1CCC[C@H]1C(=O)N[C@@H](CC(C)C)C(=O)NCC(=O)N[C@@H](CC(N)=O)C(=O)N[C@@H](Cc1ccc(O)cc1)C(=O)N[C@@H](CCCCN)C(=O)N[C@@H](CCCCN)C(=O)N1CCC[C@H]1C(N)=O) [Peptide 2: Palm-Lys-Ala-Asn-Leu-Pro-Leu-Gly-Asn-Tyr-Lys-Lys-Pro-NH2] ? Thanks! 38.8

Consider now this further binder.
Could you please provide reported FGFR3 Kinase % Inhibition for Palmitoyl-KFNLPLGNYAKP-NH2 (SMILES CCCCCCCCCCCCCCCC(=O)N[C@@H](CCCCN)C(=O)N[C@@H](Cc1ccccc1)C(=O)N[C@@H](CC(N)=O)C(=O)N[C@@H](CC(C)C)C(=O)N1CCC[C@H]1C(=O)N[C@@H](CC(C)C)C(=O)NCC(=O)N[C@@H](CC(N)=O)C(=O)N[C@@H](Cc1ccc(O)cc1)C(=O)N[C@@H](C)C(=O)N[C@@H](CCCCN)C(=O)N1CCC[C@H]1C(N)=O) [Peptide 10: Palm-Lys-Phe-Asn-Leu-Pro-Leu-Gly-Asn-Tyr-Ala-Lys-Pro-NH2] ? Thanks! 0
